# TARGET: Long-chain-fatty-acid--AMP ligase FadD28 (Mycobacterium tuberculosis, UniProt P9WQ59)
# Sequence (P9WQ59 whole entry): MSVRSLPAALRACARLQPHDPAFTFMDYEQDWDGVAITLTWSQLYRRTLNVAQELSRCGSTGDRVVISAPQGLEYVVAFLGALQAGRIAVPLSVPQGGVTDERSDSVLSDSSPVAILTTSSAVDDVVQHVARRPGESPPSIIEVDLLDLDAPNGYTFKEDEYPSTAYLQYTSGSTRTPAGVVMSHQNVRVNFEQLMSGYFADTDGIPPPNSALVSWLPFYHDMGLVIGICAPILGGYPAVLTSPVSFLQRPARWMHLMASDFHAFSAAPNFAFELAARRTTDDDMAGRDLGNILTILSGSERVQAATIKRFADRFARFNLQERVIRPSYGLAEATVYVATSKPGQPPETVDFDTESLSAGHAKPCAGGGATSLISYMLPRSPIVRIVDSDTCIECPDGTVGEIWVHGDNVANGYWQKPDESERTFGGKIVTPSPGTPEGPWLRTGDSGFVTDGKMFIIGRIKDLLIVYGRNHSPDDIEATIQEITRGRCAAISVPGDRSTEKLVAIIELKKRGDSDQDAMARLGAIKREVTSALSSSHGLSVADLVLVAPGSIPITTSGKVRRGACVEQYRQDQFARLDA
# ASSAY_OVERVIEW: Fluorescence polarization aasay to screen for inhibitors that compete for the binding of FadD28 to a bisubstrate Measured in Biochemical System Using Plate Reader - 2147-01_Inhibitor_Dose_CherryPick_Activity.
# Type: functional, Mycobacterium tuberculosis H37Rv
Active and inactive are the calls of the source. The rule behind the calls is not given here.
Outcomes: active, inactive

> print(dat)
                               entry.smiles       cat
1  Oc1cc(-c2ccccc2)nc2c(-c3ccccc3)c(C(F)(F)F)nn12    active
2  COc1ccc(NS(=O)(=O)c2cc(NC(=O)COc3ccccc3)ccc2N2CCOCC2)cc1  inactive
3  CCn1c(CSc2nnc3ccccn23)nc2cc(C(=O)O)ccc21    active
4         Cc1ccc(NC(=O)Nc2sc(=S)n(C)c2C)cc1  inactive
5  COC(=O)c1ccc(COc2ccc(/C=N/NC(N)=S)cc2)o1    active
6  Cc1cccc(CSCCNC(=O)c2ccc(N(C)S(=O)(=O)c3ccccc3)cc2)c1  inactive
7    COc1ccc(C(=O)Cn2c(=O)oc3ccc(C)cc32)cc1    active
